Every entry's value here was drawn from PubChem BioAssay (Tox21).

Experiment: A CellTox Green Cytotoxicity Assay to monitor cytotoxicity in HepG2 cells - 32 hour (AID 1224883); note: nearly all actives have a fitted effect of over 50% in size
Settings: CellTox Green fluorescence; series mostly up to 76.8 µM
Text: National Center for Advancing Translational Sciences [NCATS] NIH Chemical Genomics Center [NCGC] U.S. Environmental Protection Agency [EPA] National Institutes of Environmental Health Sciences [NIEHS] National Toxicology Program [NTP] Cell-based models are critical for drug discovery. […] Viable cells produce no appreciable increases in fluorescence. Therefore, the fluorescence signal produced by the binding interaction with dead cell DNA is proportional to cytotoxicity. […]
Results filed as inconclusive are left out. The source made the active and inactive calls. Calls come from the whole dose curve; as a rule, active = well fitted activation curve with a large enough effect in the repeat runs; inconclusive = weak or mixed curves; inactive = flat fitted curve, though single readings scatter.
Classes used: active, inactive

| compound | class-name |
| --- | --- |
| CC(C)=CCCC(C)O (stereo not drawn) | inactive |
| Cc1cc(C)c(C=O)c(C)c1 | inactive |
| CCCCCCCC/C=C\CCCCCCCC(=O)NCc1ccc(O)c(OC)c1 | inactive |
| Cc1cccc(C)c1NC(=O)CN1CCN(CCCC(c2ccc(F)cc2)c2ccc(F)cc2)CC1 | active |
| O=C1OC(=O)c2ccc3c4c(ccc1c24)C(=O)OC3=O | inactive |
| OCCCc1cccnc1 | inactive |
| CCCCCCCC/C=C\CCCCCCCC(=O)OCCOC(=O)CCCCCCC/C=C\CCCCCCCC | inactive |
| CCOCN(C(=O)CS(=O)(=O)O)c1c(C)cccc1CC | inactive |
| CC(C)(C)c1cc(/C=C2\SC(=N)NC2=O)cc(C(C)(C)C)c1O | active |
| C=CCCCCCCC=C | inactive |
| O=Cc1ccc(F)cc1 | inactive |
| C=C(C)C(=O)OCCC[Si](Cl)(Cl)Cl | inactive |
| Cc1c(C(=O)O)cccc1[N+](=O)[O-] | inactive |
